B1: HSP90AB1 (parent)
chain: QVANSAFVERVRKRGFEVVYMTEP

Variants of: B1
TEST_NAME: protein stability index of a GFP-peptide fusion (GPS, HEK-293T) (PSI 1-6); higher = more stable;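 note: lentivirally expressed fusions sorted by FACS into six bins by GFP to DsRed ratio, PSI derived from sequencing read proportions per bin multiplied by bin number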
MEASUREMENT_CONDITIONS: c terminus: a fixed tail appended
# key: entry, value: protein stability index

# VAR, protein stability index
measured = [
    ("Y20L", 2.22),
    ("R14C", 1.36),
    ("Q1E", 1.91),
    ("G15Y", 1.61),
    ("V8I", 1.88),
    ("G15S", 2.38),
    ("P24T", 2.48),
    ("F16D", 4.16),
    ("Y20P", 2.81),
    ("R12A", 2.18),
    ("A3K", 2.81),
    ("E9A", 1.36),
    ("E9F", 2.16),
    ("Q1V", 2.73),
    ("K13V", 1.54),
    ("M21E", 3.06),
    ("P24E", 3.13),
    ("E9T", 1.76),
    ("R10A", 2.18),
    ("F16H", 3.05),
    ("E17V", 1.89),
    ("V2S", 2.69),
    ("V11I", 1.79),
    ("P24Y", 1.89),
    ("Q1A", 2.29),
    ("A3F", 1.87),
    ("E9C", 2.07),
    ("V11M", 2.11),
    ("P24I", 2.03),
    ("V8N", 2.8),
    ("S5T", 2.46),
    ("V18P", 2.47),
    ("Y20D", 3.06),
    ("K13L", 2.49),
    ("V19C", 2.79),
    ("P24L", 1.21),
    ("V2M", 2.18),
    ("T22N", 2.51),
    ("P24G", 2.42),
    ("F16V", 2.64),
    ("G15W", 1.91),
    ("T22V", 1.63),
    ("R12S", 2.87),
    ("E17Y", 2.6),
    ("N4H", 2.6),
    ("R12K", 3.12),
    ("P24C", 2.2),
    ("V19L", 2.09),
    ("E23N", 1.83),
    ("E23L", 1.16),
    ("F7K", 3.03),
    ("R12F", 2.13),
    ("P24F", 1.63),
    ("S5K", 1.71),
    ("E23K", 2.13),
    ("V19K", 2.69),
    ("A6T", 2.69),
    ("Y20R", 3.23),
    ("V8S", 2.54),
    ("P24Q", 2.52),
    ("E23R", 2.47),
    ("F7P", 3.28),
    ("G15N", 2.61),
    ("V8R", 2.07),
    ("F16L", 2.52),
    ("V2T", 2.41),
    ("E23F", 1.62),
    ("E17T", 1.87),
    ("R12G", 2.59),
    ("A3H", 2.38),
    ("A6N", 2.11),
    ("M21N", 2.77),
    ("Y20W", 1.96),
    ("M21H", 3.37),
    ("V8T", 2.52),
    ("T22W", 1.55),
    ("V11K", 1.85),
    ("R10H", 2.33),
    ("Y20G", 3.52),
    ("E9N", 1.9),
    ("F16R", 2.98),
    ("A6M", 2.54),
    ("E17S", 2.49),
]

Sourced from the supplement of paper PMC10567573
